Recorded values, source paper PMC12888871.

- Assay Info: Population pharmacokinetic analysis of total plasma caspofungin in PICU patients (final two-compartment model, NONMEM, n = 29, 138 samples)
- Type: in vivo, human (critically ill Chinese children)
- Test Parameters: human, plasma, iv, Bayesian posterior estimates, non-ECMO group, n = 25; read-out: AUCss,24h, median
Quantity: AUC(0-t) (µg·h/mL)
Form entry: value (µg·h/mL) — number only.

What value of AUC(0-t) has been recorded for this entry: CC[C@H](C)C[C@H](C)CCCCCCCCC(=O)N[C@H]1C[C@@H](O)[C@@H](NCCN)NC(=O)[C@@H]2[C@@H](O)CCN2C(=O)[C@H]([C@H](O)CCN)NC(=O)[C@H]([C@H](O)[C@@H](O)c2ccc(O)cc2)NC(=O)[C@@H]2C[C@@H](O)CN2C(=O)[C@H]([C@@H](C)O)NC1=O [caspofungin] 194
